Attribute: self-cleavage kobs at 40 uM GlcN6P
B1: glmS ribozyme (parent)
chain: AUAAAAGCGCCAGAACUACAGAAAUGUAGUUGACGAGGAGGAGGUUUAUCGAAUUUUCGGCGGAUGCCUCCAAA

- Variants of: B1
- assay_protocol: self-cleavage kobs at 40 uM GlcN6P; higher = faster cleavage; RNA array
- setup_conditions: with glucosamine-6-phosphate
Fewer inactive variants are shown than the library holds.

mut	self-cleavage kobs at 40 uM GlcN6P
U56A C70U	0.000377 s⁻¹
A36U C61A C67U	5.22e-05 s⁻¹
A53C C61G	< 1e-05 s⁻¹
A15C C61U U69G	< 1e-05 s⁻¹
C50G G62U	0.00036 s⁻¹
G44C C67U C68U	< 1e-05 s⁻¹
A48U G60A	< 1e-05 s⁻¹
C8U G44U	< 1e-05 s⁻¹
G7C G32U C34A G35C	< 1e-05 s⁻¹
A42U U65C	< 1e-05 s⁻¹
C10U G37U U45A	< 1e-05 s⁻¹
G43U G63C	< 1e-05 s⁻¹
C8A U49A G51A	< 1e-05 s⁻¹
G44U A52U G62C	< 1e-05 s⁻¹
G51U A53C C67G	< 1e-05 s⁻¹
G13A A15U A33U G37U U46C U49A	< 1e-05 s⁻¹
A39U U54G C58U	< 1e-05 s⁻¹
A36U A39C	< 1e-05 s⁻¹
A14G G44C C61A C68G	< 1e-05 s⁻¹
G35U U54C U55A G59C	< 1e-05 s⁻¹
C8U G44C A52U C61A	< 1e-05 s⁻¹
A33U C34U G60U	< 1e-05 s⁻¹
A12U C16U G62A	< 1e-05 s⁻¹
G40C U47A C61U	< 1e-05 s⁻¹
U49G A64U	< 1e-05 s⁻¹
U30A G38A U65C C70G	< 1e-05 s⁻¹
A14G A42G A53G	0.00216 s⁻¹
G13U U31C C50G G63U	< 1e-05 s⁻¹
G7A A12U	< 1e-05 s⁻¹
G44C G51A	< 1e-05 s⁻¹
C67G	3.28e-05 s⁻¹
G26U C70U	0.000967 s⁻¹
A53U C70G	8.15e-05 s⁻¹
A33C G41A A42C G63C C67U	< 1e-05 s⁻¹
C10G G62A	< 1e-05 s⁻¹
A48U G60C C61U	< 1e-05 s⁻¹
U46C U47G	3.18e-05 s⁻¹
G41A U46A	3.02e-05 s⁻¹
C10A G41C A48C C58G	< 1e-05 s⁻¹
A14C U31A	0.000559 s⁻¹
A39C C61A	< 1e-05 s⁻¹
A12C U57A G62A	< 1e-05 s⁻¹
A36C U65A	< 1e-05 s⁻¹
U30A C70U	0.000214 s⁻¹
C34A G41A U65G	< 1e-05 s⁻¹
U47A C67A	0.000186 s⁻¹
